Assay: pKa of inhibitors
Format: physicochemical
observation_type: pKa

Worked examples, 4 compounds total:
[[record]]
compound = "OC[C@H]1N[C@@H](c2ccccc2)[C@@H](O)[C@@H](O)[C@@H]1O"
measurement = 6.3

[[record]]
compound = "C[C@@H]1N[C@H](CO)[C@@H](O)[C@H](O)[C@@H]1O"
measurement = 7.1

[[record]]
compound = "CC[C@@H]1N[C@H](CO)[C@@H](O)[C@H](O)[C@@H]1O"
measurement = 7.8

[[record]]
compound = "C[C@H]1[C@@H](O)[C@@H](O)[C@H](O)CN1C [MeFDJ, reference compound]"
measurement = 7.8


Ask: Entry OC[C@H]1NC[C@@H](O)[C@@H](O)[C@@H]1O : reported pKa = ?
Reply: 7.2

====

Target: Bovine epididymal α-L-fucosidase (Bos taurus, UniProt Q2KIM0)
Construct: Bovine epididymal and Charonia lampas α-L-fucosidase were assayed; from tissue; host or cells: bovine epididymis
Sequence (Q2KIM0 23-468): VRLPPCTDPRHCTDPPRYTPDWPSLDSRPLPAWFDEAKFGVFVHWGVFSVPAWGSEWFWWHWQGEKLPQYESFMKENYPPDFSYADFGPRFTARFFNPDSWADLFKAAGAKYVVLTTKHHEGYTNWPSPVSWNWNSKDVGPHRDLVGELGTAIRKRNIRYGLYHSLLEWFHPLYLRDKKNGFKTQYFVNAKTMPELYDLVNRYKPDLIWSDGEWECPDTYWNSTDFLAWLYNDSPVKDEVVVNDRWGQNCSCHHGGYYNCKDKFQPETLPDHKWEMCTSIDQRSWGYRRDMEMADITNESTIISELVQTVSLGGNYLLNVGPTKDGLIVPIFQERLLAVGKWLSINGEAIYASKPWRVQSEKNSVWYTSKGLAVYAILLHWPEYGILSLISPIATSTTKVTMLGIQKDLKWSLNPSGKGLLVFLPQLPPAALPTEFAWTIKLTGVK
Test: Inhibition of bovine epididymal α-L-fucosidase (Lineweaver-Burk)
Type: biochemical
Details: para-nitrophenyl-α-L-fucopyranoside; phosphate-citrate buffer pH 6.0; read-out: Ki (M) Bovine epididymis α-L-fucosidase
observation_type: Ki

Ask: Request the reported Ki associated with C[C@@H]1N[C@H](CO)[C@@H](O)[C@H](O)[C@@H]1O
Reply: 2e-08 M

Ask: Could you tell me which Ki is on file for OC[C@H]1N[C@@H](c2ccccc2)[C@@H](O)[C@@H](O)[C@@H]1O ?
Reply: 5.5e-06 M

Ask: Which measured Ki value corresponds to CC[C@@H]1N[C@H](CO)[C@@H](O)[C@H](O)[C@@H]1O ?
Reply: 2e-06 M

Data origin, for the record: patent US5100797A
